System: Malme-3M
experimentDescription: NCI tumour cell line growth inhibition, 48 h
The source made the active and inactive calls. Cut-off read from the data, not from the text of the source: active = GI50 up to about 1.1 µM and inactive = higher.
readoutKind: GI50

Requested read-out: GI50. Entry: CCOC(=O)N1c2ccccc2C(C)=CC(C)C1C (configuration not stated)
33.9 µM (inactive)

# query: GI50 of entry COc1cc2ncnc(Nc3cccc(Cl)c3)c2cc1OC [TYRPHOSTIN AG-1478]
6.28 µM (inactive)

Bench note: what GI50 did Cc1cccc(/C=N/NC(=S)NCc2ccccn2)n1 show?
22.1 µM (inactive)

What GI50 value was documented for this molecule, O=C(Nc1ccccc1)N(CCN(Cc1ccccc1)C(=O)Nc1ccccc1)CCN(Nc1ccccc1)C(=O)Nc1ccccc1 ?
> 100 µM (inactive)

Recorded GI50 for CN(CCN1CCCC1)C1CCc2cc(Cl)c(Cl)cc2C1 (configuration not stated) , please?
18.9 µM (inactive)

So what's the measured GI50 for this one? C[N+](C)(C)CC1CCCCC1=O (configuration not stated)
19.6 µM (inactive)

Look up GI50: CC(=O)/C(=C\Nc1c(C)n(C)n(C)c1=O)C(=O)c1ccccc1
> 50 µM (inactive)

Would you mind telling me what GI50 value was observed for Cc1ccc(I)cc1N=C=S ?
25.1 µM (inactive)

Look up GI50 for this molecule: C[N+]1(CCN=C=NC2CCCCC2)CCOCC1
> 100 µM (inactive)

Name the recorded GI50 for Nc1ccn(CCO)c(=O)n1 .
> 100 µM (inactive)

For the molecule shown here, Cc1ccn2c(=O)cc(-c3ccccc3)nc2c1 , give the reported GI50.
> 100 µM (inactive)

Entry O=C1Cc2c(-c3ccccc3)cc(-c3ccc4ccccc4c3)nc2-c2ccccc2N1 : reported GI50 = ?
7.06 µM (inactive)

Return reported GI50; argument: Cc1ccccc1Cn1nc2ccccc2cc1=O
> 100 µM (inactive)

Give the measured GI50 of CC(=O)OC(Cc1cc(C=C(C(F)(F)F)C(F)(F)F)cc(C)n1)(C(F)(F)F)C(F)(F)F .
2.48 µM (inactive)

Param item = Cc1ccc(NC(=O)CCc2cc(C(C)(C)C)nc(S)n2)cc1C ; retrieve measured GI50.
> 100 µM (inactive)

Reported GI50 for O=C(O)[C@H]1[C@@H](C2CCCCC2)O[C@@H](C2CCCCC2)O[C@H]1C(F)(F)F : what is it?
28.6 µM (inactive)

Using the record for CCOC(=O)CCC(NC(=O)Cc1ccc(Oc2nc3ccccc3nc2-c2ccccc2)cc1)C(=O)OCC (configuration not stated) , report its GI50.
> 100 µM (inactive)

Would you mind telling me what GI50 value was observed for CCOC(=O)/C(C#N)=C/c1coc2cc(C)cc(C)c2c1=O ?
45.3 µM (inactive)

Reported GI50 for Cc1cc(OC(=O)Nc2cccc3ccccc23)c(C(C)C)cc1C(=S)Nc1ccccc1 : what is it?
17.3 µM (inactive)

Recorded GI50 for O=C1NC(N2CCOCC2)=N/C1=C\c1cccs1 , please?
> 100 µM (inactive)

Quick check: GI50 of CCCC(=O)Nc1ccc(O)c2c1C1CCCCCC21 (configuration not stated) ?
> 100 µM (inactive)

Which measured GI50 value corresponds to COCOc1cc(OC)c(Br)cc1C/C(=N/O)C(=O)OC ?
25.5 µM (inactive)

Fill blank: measured GI50 of the molecule CCC(C)N1CN(c2ccccc2)C2(CCN(CCCC(=O)c3ccc(F)cc3)CC2)C1=O (configuration not stated) is ____.
14.7 µM (inactive)

Would you mind telling me what GI50 value was observed for OCCN(CCO)c1ccc2c(C(F)(F)F)cc(C(F)(F)F)nc2n1 ?
> 100 µM (inactive)

Could you tell me which GI50 is on file for Cn1c(=O)oc2cc(C(O)CN3CCN(Cc4ccccn4)CC3)c(Cl)cc21 (configuration not stated) ?
> 100 µM (inactive)

Consider the molecule [O-]c1c2c(nn1-c1ccccc1)c1ccccc1c[n+]2Cc1ccccc1 and give its measured GI50.
> 100 µM (inactive)

Name the reported GI50 value associated with the molecule C/C=C/C(C#N)(Cc1ccccc1)OP1(=O)OC(c2ccccc2)C(C)N1C (configuration not stated)
> 100 µM (inactive)

Recorded GI50 for O=c1nc(N2CCCCC2)sc2[nH]c3ccccc3c12 , please?
68.4 µM (inactive)

Give the measured GI50 of O=C(O)c1ccccc1C1CCCc2c1[nH]c1ccccc21 (configuration not stated) .
98.9 µM (inactive)

Entry CCCCCCCCCc1cc(=O)c2c(O)cc(O)cc2o1 : reported GI50 = ?
16.4 µM (inactive)

Could you share which GI50 value was measured for C[N+]1(CCNP(=S)(NCC[N+]2(C)Cc3c(ccc4c3OCO4)C3C2c2cc4c(cc2C[C@@H]3O)OCO4)NCC[N+]2(C)Cc3c(ccc4c3OCO4)C3C2c2cc4c(cc2C[C@@H]3O)OCO4)Cc2c(ccc3c2OCO3)C2C1c1cc3c(cc1C[C@H]2O)OCO3 (some centres not stated) ?
< 0.00191 µM (active)

Record request: GI50 value, item O=C1C[C@@H]2[C@@H](C=CC23CCCC3)N1O
> 100 µM (inactive)

Look up GI50 for this molecule: N=C(N)Cn1cnc2ccccc21
> 100 µM (inactive)

If you can, please state the reported GI50 value of Cc1cc(C)c2c(=O)n(CC(O)CN3CCN(CCOCCO)CC3)sc2n1 (configuration not stated) .
18.8 µM (inactive)

Please look up its GI50: Cc1ccc(-c2n[nH]c(=O)n2/N=C\c2ccccc2)cc1
> 91.2 µM (inactive)

Quick one: GI50 of COC(=O)CCC(C)[C@H]1CCC2C3CC[C@@H]4CC5(CC[C@]4(C)C3C[C@H](OC(C)=O)[C@@]21C)OOC1(CCCCC1)OO5 (some centres not stated) ?
4.03 µM (inactive)

Which value of GI50 has been reported for CCOC(=O)C1=C(N)N(c2ccccc2)/C(=C2\SC(=S)N(c3ccc(C)cc3)C2=O)S1 in the records?
51.1 µM (inactive)

Quick one: GI50 for O=C1CCSc2nc(-c3ccc4c(c3)OCO4)nn21 ?
> 10 µM (inactive)

Query (molecule): CC(=O)C1=C(O)C2C3c4c[nH]c5cccc(c45)CC3C(C)(C)N2C1=O (configuration not stated) ; field requested: GI50
33.9 µM (inactive)

For Cc1cccc(C)c1N1C(=O)C(=O)C(c2nc3ccccc3s2)/C(=N\N)C1=O (configuration not stated) , what is its reported GI50?
> 100 µM (inactive)

Data request, read-out GI50, for CCCCNC(=S)Nc1nc(C(=O)NNC(=S)NC2CCCCC2)cs1
> 100 µM (inactive)

What value of measured GI50 is listed for COc1ccc(/C=C2\CN(C)C/C(=C\c3ccc(OC)cc3)C2=O)cc1 ?
> 100 µM (inactive)
